Molecular target: Glutaminase kidney isoform, mitochondrial (Homo sapiens, UniProt O94925)
Sequence (O94925 whole entry): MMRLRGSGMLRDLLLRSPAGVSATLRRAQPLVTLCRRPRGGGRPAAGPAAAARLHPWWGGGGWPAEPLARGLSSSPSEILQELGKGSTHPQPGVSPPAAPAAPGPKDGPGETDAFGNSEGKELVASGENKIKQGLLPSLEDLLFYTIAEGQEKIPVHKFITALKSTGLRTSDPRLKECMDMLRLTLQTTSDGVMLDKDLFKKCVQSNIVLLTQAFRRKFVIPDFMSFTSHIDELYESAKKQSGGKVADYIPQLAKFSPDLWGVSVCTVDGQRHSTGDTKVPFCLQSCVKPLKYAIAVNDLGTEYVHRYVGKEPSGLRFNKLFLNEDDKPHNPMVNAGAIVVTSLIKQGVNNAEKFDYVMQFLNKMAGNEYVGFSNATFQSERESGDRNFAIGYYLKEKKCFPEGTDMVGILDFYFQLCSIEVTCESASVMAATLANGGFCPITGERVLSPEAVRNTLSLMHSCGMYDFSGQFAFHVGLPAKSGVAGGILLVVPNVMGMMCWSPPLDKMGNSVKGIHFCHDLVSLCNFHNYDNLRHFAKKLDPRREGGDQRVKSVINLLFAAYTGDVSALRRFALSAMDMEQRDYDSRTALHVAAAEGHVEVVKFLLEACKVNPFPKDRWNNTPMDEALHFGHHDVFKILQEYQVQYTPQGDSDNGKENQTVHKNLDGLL
Test: Inhibition of human kidney type glutaminase (124 to 669 residues) using L-[3H]-glutamine as substrate after 45 mins by topcount method
pIC50: −log10 of the molar value.
# pIC50 values compiled below
attribute.measured: pIC50

[[record]]
structure_as_smiles = "O=C(Cc1ccccc1)Nc1nnc(CCCCc2nnc(NC(=O)Cc3ccc(O)cc3)s2)s1"
attribute_measured = "pIC50"
recorded_number = 7.15

[[record]]
structure_as_smiles = "O=C(Cc1ccccc1)Nc1nnc(CCCCc2nnc(NC(=O)Cc3cccc(O)c3)s2)s1"
attribute_measured = "pIC50"
recorded_number = 6.92

[[record]]
structure_as_smiles = "CC(=O)Oc1ccc(CC(=O)Nc2nnc(CCCCc3nnc(NC(=O)Cc4ccccc4)s3)s2)cc1"
attribute_measured = "pIC50"
recorded_number = 6.27

[[record]]
structure_as_smiles = "CC(=O)Oc1ccc(CC(=O)Nc2nnc(CCCCc3nnc(NC(=O)Cc4cccc(OC(F)(F)F)c4)s3)s2)cc1"
attribute_measured = "pIC50"
recorded_number = 5.70

[[record]]
structure_as_smiles = "O=C(Cc1ccccc1)Nc1nnc(CCCCc2nnc(NC(=O)Cc3ccc(Br)cn3)s2)s1"
attribute_measured = "pIC50"
recorded_number = 6.77

[[record]]
structure_as_smiles = "COC(=O)c1ccc(CC(=O)Nc2nnc(CCCCc3nnc(NC(=O)Cc4ccccc4)s3)s2)cc1"
attribute_measured = "pIC50"
recorded_number = 4.89

[[record]]
structure_as_smiles = "COc1ccc(CC(=O)Nc2nnc(CCCCc3nnc(NC(=O)Cc4ccccc4)s3)s2)cc1"
attribute_measured = "pIC50"
recorded_number = 6.68

[[record]]
structure_as_smiles = "O=C(Cc1ccccc1)Nc1nnc(CCCCc2nnc(NC(=O)Cc3ccc(Oc4ccccc4)cc3)s2)s1"
attribute_measured = "pIC50"
recorded_number = 6.42

[[record]]
structure_as_smiles = "O=C(Cc1ccc(O)cc1)Nc1nnc(CCCCc2nnc(NC(=O)Cc3cccnc3)s2)s1"
attribute_measured = "pIC50"
recorded_number = 6.85

[[record]]
structure_as_smiles = "CC(=O)Oc1ccc(CC(=O)Nc2nnc(CCCCc3nnc(NC(=O)Cc4cccnc4)s3)s2)cc1"
attribute_measured = "pIC50"
recorded_number = 6.92

[[record]]
structure_as_smiles = "O=C(Cc1ccccc1)Nc1nnc(CCCCc2nnc(NC(=O)Cc3cccnc3)s2)s1"
attribute_measured = "pIC50"
recorded_number = 7.15

